biological target: AKT2 (Homo sapiens, UniProt P31751); construct: expressed in transfected cells; host or cells: HEK293; assay: Live cell AKT2 target engagement by NanoBRET competitive probe displacement in HEK293 cells; format: binding; details: NanoBRET live cell target engagement, HEK293 cells, 2 h at 37° C.; read-out: AKT2 IC50
Sequence (P31751 whole entry): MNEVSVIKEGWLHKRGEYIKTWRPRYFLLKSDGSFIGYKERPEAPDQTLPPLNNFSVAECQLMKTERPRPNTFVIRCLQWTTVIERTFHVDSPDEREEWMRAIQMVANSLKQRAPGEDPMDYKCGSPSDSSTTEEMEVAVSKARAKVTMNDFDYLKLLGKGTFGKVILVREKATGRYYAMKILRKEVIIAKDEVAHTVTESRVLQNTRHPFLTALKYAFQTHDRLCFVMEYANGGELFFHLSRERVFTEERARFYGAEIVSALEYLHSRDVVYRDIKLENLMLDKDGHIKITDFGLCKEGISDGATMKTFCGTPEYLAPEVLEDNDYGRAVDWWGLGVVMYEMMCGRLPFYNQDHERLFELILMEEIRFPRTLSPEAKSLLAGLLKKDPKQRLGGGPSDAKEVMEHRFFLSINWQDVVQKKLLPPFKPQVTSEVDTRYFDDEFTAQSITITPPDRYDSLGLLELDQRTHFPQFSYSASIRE
Assay endpoint: log10(IC50) (log10 of the value in nM)
Recall that a logarithmic scale is used here: each number is log10 of IC50 in nM.

- Compound: "Nc1ncccc1-c1nc2ccc(-n3cccn3)nc2n1-c1ccc2c(c1)CC[C@@H]2n1cc(C2COC2)nn1"
  Measured target: "AKT2 (Homo sapiens, UniProt P31751)"
  Recorded measurement: 3.80
- Compound: "Cc1nccnc1C(=O)N[C@H]1CCc2cc(-n3c(-c4cccnc4N)nc4ccc(-c5ccn(C(F)F)n5)nc43)ccc21"
  Measured target: "AKT2 (Homo sapiens, UniProt P31751)"
  Recorded measurement: 3.31
- Compound: "Cc1cn(C)nc1C(=O)N[C@H]1CCc2cc(-n3c(-c4cccnc4N)nc4ccc(-n5cccn5)nc43)ccc21"
  Measured target: "AKT2 (Homo sapiens, UniProt P31751)"
  Recorded measurement: 3.38

Query :: // fetch AKT2 (Homo sapiens, UniProt P31751) log10(IC50) for Nc1ncccc1-c1nc2ccc(-n3cccn3)nc2n1-c1ccc2c(c1)CC[C@@H]2n1cc(C2CC2(F)F)nn1 (stereo partly shown)
Result :: 3.10

Query :: // fetch AKT2 (Homo sapiens, UniProt P31751) log10(IC50) for Nc1ncccc1-c1nc2ccc(-n3cccn3)nc2n1-c1ccc2c(c1)CC[C@@H]2NC(=O)c1cnccn1
Result :: 3.33

Query :: // fetch AKT2 (Homo sapiens, UniProt P31751) log10(IC50) for Nc1ncccc1-c1nc2ccc(-n3cccn3)nc2n1-c1ccc2c(c1)CC[C@@H]2NC(=O)c1ccnc(C#Cc2ccccc2)c1
Result :: 2.50

---

molecular target: AKT1 WT (Homo sapiens, UniProt P31749); construct: expressed in transfected cells; host or cells: HEK293; assay: Live cell AKT1 WT target engagement by NanoBRET competitive probe displacement in HEK293 cells; format: binding; settings: NanoBRET competitive probe displacement, live HEK293 cells, 2 h at 37° C.; read-out: AKT1 WT IC50
Sequence (P31749 whole entry): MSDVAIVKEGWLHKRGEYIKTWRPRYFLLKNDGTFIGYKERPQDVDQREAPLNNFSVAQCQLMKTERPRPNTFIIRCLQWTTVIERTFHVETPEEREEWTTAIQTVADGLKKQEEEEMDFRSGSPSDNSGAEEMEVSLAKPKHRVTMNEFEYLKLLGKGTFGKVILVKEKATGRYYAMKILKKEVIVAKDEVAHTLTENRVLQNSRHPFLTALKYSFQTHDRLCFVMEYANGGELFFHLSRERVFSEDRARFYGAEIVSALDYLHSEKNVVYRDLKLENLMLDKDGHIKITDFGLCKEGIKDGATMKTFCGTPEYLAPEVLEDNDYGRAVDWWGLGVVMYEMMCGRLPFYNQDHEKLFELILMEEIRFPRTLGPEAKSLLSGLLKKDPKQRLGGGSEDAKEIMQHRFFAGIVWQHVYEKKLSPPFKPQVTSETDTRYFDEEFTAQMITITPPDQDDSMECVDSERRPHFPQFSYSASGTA
Catalogue of IC50 values
I only need the number, in nM, no unit after it.

Worked set:
- Compound: "N#Cc1cc(-n2nccn2)nc2c1nc(-c1cccnc1N)n2-c1ccc2c(c1)CC[C@@H]2NC(=O)c1ccc(C(F)F)nc1"
  Unit abbreviation: "nM"
  IC50: 27.4
- Compound: "Nc1ncccc1-c1nc2ccc(-n3cccn3)nc2n1-c1ccc2c(c1)CC[C@@H]2NC1CCN(C(=O)C2CC2)CC1F (some centres unmarked) [Compound 445]"
  Unit abbreviation: "nM"
  IC50: 20.2

Query :: Which value of IC50 has been reported for Cn1nc(C(=O)N[C@H]2CCc3cc(-n4c(-c5cccnc5N)nc5ccc(-n6cccn6)nc54)ccc32)cc1F in the records?
Result :: 58.9

Query :: Which value of IC50 has been reported for Nc1ncccc1-c1nc2ccc(-n3ccc(OC(F)F)n3)nc2n1-c1ccc2c(c1)CC[C@@H]2NC1CCN(C(=O)C2CC2)CC1 in the records?
Result :: 30.9

Query :: Which value of IC50 has been reported for COc1cc(C(=O)N[C@H]2CCc3cc(-n4c(-c5cccnc5N)nc5ccc(-n6cccn6)nc54)ccc32)sn1 in the records?
Result :: 5.64

Query :: Which value of IC50 has been reported for Nc1ncccc1-c1nc2ccc(-n3cccn3)nc2n1-c1ccc2c(c1)CC[C@@H]2NC1CCc2cc(O)ccc21 (single isomer, unassigned) [Compound 499] in the records?
Result :: 45.6

Query :: Which value of IC50 has been reported for Nc1ncccc1-c1nc2ccc(-n3cccn3)nc2n1-c1ccc2c(c1)CC[C@@H]2NC1CC2(CCN(c3ccccn3)C2)C1 (some centres unmarked) in the records?
Result :: 78.5

Query :: Which value of IC50 has been reported for Nc1ncccc1-c1nc2ccc(-n3cccn3)nc2n1-c1ccc2c(c1)CC[C@@H]2NC1CCN(C(=O)[C@H]2C[C@H]2F)CC1 in the records?
Result :: 126

Query :: Which value of IC50 has been reported for Nc1ncccc1-c1nc2ccc(-n3ccc(OC(F)F)n3)nc2n1-c1ccc2c(c1)CC[C@@H]2NC1[C@@H]2COC[C@H]1CN(C(=O)C1CC1)C2 (some centres unmarked) [Compound 560] in the records?
Result :: 249

Query :: Which value of IC50 has been reported for N#Cc1nccc(N2CC(N[C@H]3CCc4cc(-n5c(-c6cccnc6N)nc6ccc(-n7cccn7)nc65)ccc43)C2)n1 in the records?
Result :: 6.51

---

target: AKT1 WT (Homo sapiens); construct: expressed in transfected cells; host or cells: HEK293; test: Live cell AKT1 WT target engagement by NanoBRET competitive probe displacement in HEK293 cells; assay type: binding; conditions: NanoBRET live cell target engagement, HEK293 cells, 2 h at 37° C.; read-out: AKT1 WT IC50
Catalogue of IC50 values
I only need the number, in nM, no unit after it.

Worked set:
- Molecule: "CCOC(=O)N1CCC(N[C@H]2CCc3cc(-n4c(-c5cccnc5N)nc5ccc(-n6cccn6)nc54)ccc32)CC1 [Compound 289]"
  Recorded measurement: 69.9
- Molecule: "CC(=O)Nc1ccc(C(=O)N[C@H]2CCc3cc(-n4c(-c5cccnc5N)nc5ccc(-n6cccn6)nc54)ccc32)cc1 [Compound 196]"
  Recorded measurement: 9.31

Query :: Which value of IC50 has been reported for CNS(=O)(=O)c1ccc(C(=O)N[C@H]2CCc3cc(-n4c(-c5cccnc5N)nc5ccc(-n6cccn6)nc54)ccc32)cc1 [Compound 308] in the records?
Result :: 15.1

Query :: Which value of IC50 has been reported for Nc1ncccc1-c1nc2ccc(-n3cccn3)nc2n1-c1ccc2c(c1)CC[C@@H]2NC(=O)c1ccc(F)c(Cl)c1 [Compound 337] in the records?
Result :: 8.65

Query :: Which value of IC50 has been reported for Cc1ccc(CN[C@H]2CCc3cc(-n4c(-c5cccnc5N)nc5ccc(-n6cccn6)nc54)ccc32)cn1 [Compound 70] in the records?
Result :: 49.4

Query :: Which value of IC50 has been reported for Cc1cc(C(=O)N[C@H]2CCc3cc(-n4c(-c5cccnc5N)nc5ccc(-n6cccn6)nc54)ccc32)c(C)nc1C [Compound 150] in the records?
Result :: 18.2

Query :: Which value of IC50 has been reported for Nc1ncccc1-c1nc2ccc(-n3cccn3)nc2n1-c1ccc2c(c1)CC[C@@H]2n1cc(C(F)F)nn1 [Compound 326] in the records?
Result :: 18.2

---

target: AKT1 WT (Homo sapiens, UniProt P31749); construct: expressed in transfected cells; host or cells: HEK293; assay: Live cell AKT1 WT target engagement by NanoBRET competitive probe displacement in HEK293 cells; type: binding; conditions: NanoBRET competitive probe displacement, live HEK293 cells, 2 h at 37° C.; read-out: AKT1 WT IC50
Assay endpoint: IC50 (nM)
I only need the number, in nM, no unit after it.

- Molecule: "N[C@@H]1c2ccc(-n3c(-c4ccccc4F)nc4ccc(-n5ccc(N6CCOCC6)n5)nc43)cc2CC1F (stereo partly drawn)"
  IC50, nM: 2.22

As a next step, examine the molecule that follows.
Query :: Which value of IC50 has been reported for Nc1ncccc1-c1nc2ccc(-n3cccn3)nc2n1-c1ccc2c(c1)CC[C@@H]2NC1CCN(C(=O)C2CC2(F)F)CC1 (stereo partly drawn) in the records?
Result :: 190

---

Catalogue of IC50 values
biological target: AKT1 E17K (Homo sapiens, UniProt P31749, E17K); construct: expressed in transfected cells; host or cells: HEK293; test: Live cell AKT1 E17K target engagement by NanoBRET competitive probe displacement in HEK293 cells; assay type: binding; conditions: NanoBRET live cell target engagement, HEK293 cells, 2 h at 37° C.
Sequence (P31749 whole entry E17K): as the sequence (P31749 whole entry) above, with E17K counted along it
I only need the number, in nM, no unit after it.

- Mol smiles: "Cc1ccc(C(=O)N[C@H]2CCc3cc(-n4c(-c5cccnc5N)nc5ccc(-n6nccn6)nc54)ccc32)cn1"
  Recorded measurement: 229

As a next step, examine the compound that follows.
Query :: // fetch AKT1 E17K (Homo sapiens, UniProt P31749, E17K) IC50 for CN(C)c1ccc(F)c(C(=O)N[C@H]2CCc3cc(-n4c(-c5cccnc5N)nc5ccc(-n6cccn6)nc54)ccc32)c1
Result :: 320

---

molecular target: AKT1 WT (Homo sapiens, UniProt P31749); construct: expressed in transfected cells; host or cells: HEK293; experiment: Live cell AKT1 WT target engagement by NanoBRET competitive probe displacement in HEK293 cells; assay type: binding; conditions: NanoBRET competitive probe displacement, live HEK293 cells, 2 h at 37° C.; read-out: AKT1 WT IC50
Catalogue of IC50 values
I only need the number, in nM, no unit after it.

Worked set:
- Molecule: "Nc1ncccc1-c1nc2ccc(-c3ccn(C(F)F)n3)nc2n1-c1ccc2c(c1)CC[C@@H]2NC1CCN(C(=O)C2CC2)CC1 [Compound 434]"
  IC50 / nM: 57.7
- Molecule: "Nc1ncccc1-c1nc2ccc(-n3cccn3)nc2n1-c1ccc2c(c1)CC[C@@H]2NC1CCN(c2ccccc2)C1 (stereo partly drawn) [Compound 470]"
  IC50 / nM: 68.2
- Molecule: "Nc1ncccc1-c1nc2ccc(-n3ccc(OC4COC4)n3)nc2n1-c1ccc2c(c1)CC[C@@H]2NC1CCN(C(=O)C2CC2)CC1 [Compound 567]"
  IC50 / nM: 11.3
- Molecule: "Cc1cc(N2CCC(N[C@H]3CCc4cc(-n5c(-c6cccnc6N)nc6ccc(-n7cccn7)nc65)ccc43)CC2)nc(C#N)n1 [Cpd 584]"
  IC50 / nM: 6.1
- Molecule: "Nc1ncccc1-c1nc2ccc(-n3cccn3)nc2n1-c1ccc2c(c1)CC(F)[C@@H]2NC1CCc2cnccc21 (single isomer, unassigned) [Compound 482]"
  IC50 / nM: 5.39

As a next step, examine the molecule that follows.
Query :: Which value of IC50 has been reported for Nc1ncccc1-c1nc2ccc(-n3cccn3)nc2n1-c1ccc2c(c1)CC[C@@H]2NC1CC2(CCCN(c3ccccn3)C2)C1 (stereo partly drawn) [Compound 468] in the records?
Result :: 74.7
